- tested on: DmCPD1Bs (D. melanogaster carboxypeptidase D variant 1B short) (Drosophila melanogaster, UniProt P42787)
- Sequence (P42787 26-435 isoform P42787-7): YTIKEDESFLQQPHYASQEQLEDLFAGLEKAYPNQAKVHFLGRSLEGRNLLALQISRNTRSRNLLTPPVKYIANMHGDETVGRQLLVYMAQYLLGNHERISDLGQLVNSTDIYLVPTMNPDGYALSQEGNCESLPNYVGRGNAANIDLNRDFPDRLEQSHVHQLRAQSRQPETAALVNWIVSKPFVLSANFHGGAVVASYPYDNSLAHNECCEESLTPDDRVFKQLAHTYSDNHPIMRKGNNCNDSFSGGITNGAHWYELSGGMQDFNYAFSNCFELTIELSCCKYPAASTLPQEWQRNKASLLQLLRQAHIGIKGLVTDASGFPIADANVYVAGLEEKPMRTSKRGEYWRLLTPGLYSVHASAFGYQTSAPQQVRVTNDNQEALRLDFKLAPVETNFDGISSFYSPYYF
- protocol summary: crystal structure at […] Å
endpoint: Ki (nM)

compound: N=C(N)NCCSC(CC(=O)O)C(=O)O (stereo not shown)
endpoint: Ki
number: 670
